Data origin: patent US5061794A

This listing pairs compounds with measured MIC.
# Tested on: E. cloacae 963
# procedure.details: in vitro antibacterial activity, agar plate dilution method (MIC)
# Format: cell-based
# condition.set: Enterobacter cloacae, 16 h; E. cloacae 963; 10^6 CFU/ml; read-out: Minimum Inhibitory Concentration (MIC)
# Method: The in vitro antibacterial activities of the compounds of the present invention against various microorganisms, were measured by the following agar plate dilution method. One platinum loopfull of each test microorganism incubated overnight in Mueller Hinton broth, was inoculated to Mueller Hinton agar (inoculum size: 10^6 CFU/ml). […] After incubation at 37° C. for 16 hours, the minimum inhibitory concentrations (MIC: μg/ml) were measured.

compound	MIC
CC(C)(O/N=C(\C(=O)N[C@@H]1C(=O)N2C(C(=O)O)=C(CSc3nnc(-c4ccc(O)c(O)c4)s3)CS[C@H]12)c1csc(N)n1)C(=O)O [Ex. 34]	0.1 µg/mL
Nc1nc(C(=NOC2CCCC2)C(=O)NC2C(=O)N3C(C(=O)O)=C(CSc4nc(C(=O)O)c(-c5ccc(O)c(O)c5)s4)CSC23)cs1 (stereo not drawn) [Ex. 54]	0.1 µg/mL
CON=C(C(=O)NC1C(=O)N2C(C(=O)O)=C(CSc3nc(-c4ccc(O)c(O)c4)c(CC(=O)O)s3)CSC12)c1csc(N)n1 (stereo not drawn) [compound 58]	0.1 µg/mL
